Ref: patent US5288621A

system.tested: TRH-R expressed in COS-1 cells (Mus musculus)
Construct: the entire TRH-R cDNA, according to the present invention, contained in a Not I/HindIII fragment was cloned directly into the eukaryotic expression vector pCDM8; expressed in transfected cells; host or cells: COS-1 cells transfected with pCDM8mTRHR
Sequence (P21761 1-393): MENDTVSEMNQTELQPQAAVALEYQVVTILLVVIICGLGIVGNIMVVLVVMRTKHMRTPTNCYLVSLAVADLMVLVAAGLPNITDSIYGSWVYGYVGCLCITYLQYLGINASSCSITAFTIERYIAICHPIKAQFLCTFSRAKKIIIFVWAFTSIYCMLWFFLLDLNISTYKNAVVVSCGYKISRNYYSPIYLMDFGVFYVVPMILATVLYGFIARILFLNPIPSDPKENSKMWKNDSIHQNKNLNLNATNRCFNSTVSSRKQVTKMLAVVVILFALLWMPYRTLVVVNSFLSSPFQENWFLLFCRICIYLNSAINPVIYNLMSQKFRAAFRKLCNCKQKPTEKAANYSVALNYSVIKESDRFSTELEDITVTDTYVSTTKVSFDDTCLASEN
assay: TRH-stimulated inositol phosphate formation in COS-1 cells transfected with pCDM8mTRHR
Format: cell-based
condition: labeled with myo-[3H]inositol 48 hours
pEC50: −log10 of the molar value.
readout.label: pEC50

Ask: Dear colleague, I am looking for the recorded pEC50 of the following compound: "NC(=O)[C@@H]1CCCN1C(=O)[C@H](Cc1cnc[nH]1)NC(=O)[C@@H]1CCC(=O)N1"
Result: ~8.00
